Form field: melting point (one value per entry).

Known results for compounds:
[
  {
    "compound": "CCC(CC)N(Cc1ccc(C(=O)O)cn1)S(=O)(=O)c1ccc(F)cc1",
    "result": "145 to 147 °C"
  },
  {
    "compound": "NC(=O)c1ccc(OCCCC(=O)O)cc1",
    "result": "162 to 164 °C"
  },
  {
    "compound": "CC(O)C#Cc1cccc(NC(=O)Nc2ncc(C(C)C)s2)c1 (stereo unspecified)",
    "result": "71 to 73 °C"
  },
  {
    "compound": "O=C1c2ccccc2-c2c(Cl)nc3ccccc3c21",
    "result": "149 to 150 °C"
  },
  {
    "compound": "O=C(O)C=Cc1ccc(-n2ccccc2=O)cc1",
    "result": "279 to 282 °C"
  },
  {
    "compound": "Fc1ccc2c(C3=CCN(CC4COc5ccc6[nH]c(C(F)(F)F)nc6c5O4)CC3)c[nH]c2c1 (stereo unspecified)",
    "result": "215 to 220 °C"
  },
  {
    "compound": "O=C(CCN1CCN(c2ccccc2)CC1)NCC(=O)c1ccccc1",
    "result": "126 °C"
  },
  {
    "compound": "Cc1nc2c(o1)-c1c(SC(C)C)sc(C(=O)O)c1CC2",
    "result": "277 to 278 °C"
  }
]

Task: // query melting point value for entry Oc1ccccc1Cc1cccc2[nH]ccc12
Result: 139 °C

Task: // query melting point value for entry CCOC(=O)c1ncn2c1COc1ccccc1-2
Result: 135 to 137 °C

Task: // query melting point value for entry CCCC1=C(C(=O)OCC)C(c2ccccc2OC)c2c[nH]nc2N1 (stereo unspecified)
Result: 169 °C
